Source: patent US20250163162A1

target_system: T1, IL10Rα/IL2Rγ receptor (human, UniProt Q13651 22-578; P31785 23-369)
T1 sequence (looked up) 1: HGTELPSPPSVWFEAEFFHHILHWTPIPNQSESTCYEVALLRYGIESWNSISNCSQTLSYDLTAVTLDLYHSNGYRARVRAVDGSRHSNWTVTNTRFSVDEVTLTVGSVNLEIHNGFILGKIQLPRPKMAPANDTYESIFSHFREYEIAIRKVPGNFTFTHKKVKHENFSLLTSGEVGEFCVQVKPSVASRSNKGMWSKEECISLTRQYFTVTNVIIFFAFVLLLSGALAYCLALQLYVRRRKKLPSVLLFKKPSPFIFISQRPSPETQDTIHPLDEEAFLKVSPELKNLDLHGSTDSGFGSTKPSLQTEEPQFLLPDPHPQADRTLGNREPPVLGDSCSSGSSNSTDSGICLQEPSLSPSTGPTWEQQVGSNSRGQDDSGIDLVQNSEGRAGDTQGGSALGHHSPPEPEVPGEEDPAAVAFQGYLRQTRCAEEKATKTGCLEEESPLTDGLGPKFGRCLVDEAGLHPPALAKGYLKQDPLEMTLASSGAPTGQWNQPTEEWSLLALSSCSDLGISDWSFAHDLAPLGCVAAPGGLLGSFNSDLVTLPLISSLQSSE
T1 sequence (looked up) 2: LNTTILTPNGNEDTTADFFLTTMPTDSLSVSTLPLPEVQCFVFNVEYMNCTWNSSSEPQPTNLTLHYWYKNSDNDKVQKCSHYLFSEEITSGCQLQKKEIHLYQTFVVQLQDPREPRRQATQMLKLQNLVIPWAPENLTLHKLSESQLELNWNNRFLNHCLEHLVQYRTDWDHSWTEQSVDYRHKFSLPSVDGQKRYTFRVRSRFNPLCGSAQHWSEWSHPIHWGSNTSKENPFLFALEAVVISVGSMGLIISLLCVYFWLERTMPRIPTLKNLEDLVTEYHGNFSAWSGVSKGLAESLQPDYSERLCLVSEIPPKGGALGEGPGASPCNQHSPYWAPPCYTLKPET
method_description: cell-based or functional assay
Please provide measured pSTAT3 MFI, B cells, 100 nM (unstimulated 1045) for the entries that follow.
Express it in MFI; write the number only.

### Prompt # return recorded pSTAT3 MFI, B cells, 100 nM (unstimulated 1045) for input DR441(DR236-DR231) (bispecific antibody) QVQLQESGGGSVQAGGSLRLSCAASRFTYSSYCMGWFRQAPGKEREGVASIDSDGSTSYTDSVKGRFTISKDNAKNTLYLQMNSLKPEDTAMYYCALDLMSTVVPGFCGFLLSAGMDYWGKGTQVTVSSGGGSQVQLQESGGGSVQAGGSLRLSCTASGFTFDDREMNWYRQAPGNECELVSTISSDGSTYYADSVKGRFTISQDNAKNTVYLQMDSVKPEDTAVYYCAADFMIAIQAPGAGCWGQGTQVTVSSASHHHHHH
### Response 1280

### Prompt Give the reported value of pSTAT3 MFI, B cells, 100 nM (unstimulated 1045) for this record: DR444(DR236-DR234) (bispecific antibody) QVQLQESGGGSVQAGGSLRLSCAASRFTYSSYCMGWFRQAPGKEREGVASIDSDGSTSYTDSVKGRFTISKDNAKNTLYLQMNSLKPEDTAMYYCALDLMSTVVPGFCGFLLSAGMDYWGKGTQVTVSSGGGSQVQLQESGGGSVQAGGSLRLSCVASGYTFSSYCMGWFRQAPGKEREGVAALGGGSTYYADSVKGRFTISQDNAKNTLYLQMNSLKPEDTAMYYCAAAWVACLEFGGSWYDLARYKHWGQGTQVTVSSASHHHHHH
### Response 1070

### Prompt Query pSTAT3 MFI, B cells, 100 nM (unstimulated 1045) for DR395(DR229-DR239) (bispecific antibody) QVQLQESGGGLVQPGGSLRLSCTASGFSFSSYPMTWARQAPGKGLEWVSTIASDGGSTAYAASVEGRFTISRDNAKSTLYLQLNSLKTEDTAMYYCTKGYGDGTPAPGQGTQVTVSSGGGSQVQLQESGGGSVQAGGSLRLSCTVSGYTYSSNCMGWFRQAPGKEREGVATIYTGGGNTYYADSVKGRFTISQDNAKNTVYLQMNNLKPEDTAMYYCAAEPLSRVYGGSCPTPTFDYWGQGTQVTVSSASHHHHHH
### Response 1030
